Ref: paper PMC9640990

Test: in vivo
Details: male, Sprague-Dawley, rat, in vivo, po, 0.72 g/kg, t max, median (range); plasma PK-marker, rats, intragastric PCE 0.72 g/kg alone

{"columns": ["COMPOUND", "Tmax"],
 "data": [
  ["O=C(O)c1cc(O)c(O)c(O)c1 [GA, Gallic acid]", "1.5 h"]
]}

====

Test: in vivo
Details: male, Sprague-Dawley, rat, in vivo, po, 0.72 g/kg, AUC 0-t

{"columns": ["SMILES_STRUCTURE", "AUC(0-t), ng·h/mL"],
 "data": [
  ["O=C(O)c1cc(O)c(O)c(O)c1", 465]
]}

====

Examples of compounds with documented k el follow.
Experiment: clinical
Settings: male, human, plasma, oral, k e, plasma PK-marker, human subjects, single dose of PCE (8 g) + CIP 0.5 g

{"columns": ["SMILES_STRUCTURE", "UNIT_STRING", "k el"],
 "data": [
  ["O=C(O)c1cc(O)c(O)c(O)c1", "s⁻¹", 0.000131],
  ["O=C(O)c1ccc(O)c(O)c1", "s⁻¹", 0.000569]
]}

====

Test: clinical
Conditions: male, human, in vivo, po, V z/F

{"columns": ["SMILES_STRUCTURE", "Vd/F [L]"],
 "data": [
  ["O=C(O)c1cc(O)c(O)c(O)c1", 322]
]}

====

Experiment: in vivo
Conditions: male, Sprague-Dawley, rat, plasma, po, 0.72 g/kg, C max, plasma PK-marker, rats, intragastric PCE 0.72 g/kg alone
REPORTED_PROPERTY: Cmax (ng/mL)

{"columns": ["MOLECULE", "READOUT_VALUE"],
 "data": [
  ["O=C(O)c1ccc(O)c(O)c1 [PCA, protocatechuic acid]", 5.08]
]}

====

Assay: clinical
Details: male, human, plasma, oral, t 1/2, plasma PK-marker, human subjects, multiple doses of PCE (8 g, TID, seven days) + CIP 0.5 g
REPORTED_PROPERTY: half-life (min)

{"columns": ["COMPOUND", "READOUT_VALUE"],
 "data": [
  ["O=C(O)c1ccc(O)c(O)c1 [PCA, protocatechuic acid]", 18.6]
]}

====

Assay: clinical
Conditions: male, human, plasma, po, AUC 0-∞, plasma PK-marker, human subjects, oral single dose of PCE (8 g) alone

{"columns": ["SMILES_STRUCTURE", "UNIT_STRING", "AUC(0-inf)"],
 "data": [
  ["O=C(O)c1ccc(O)c(O)c1", "ng·h/mL", 3.39]
]}

====

Assay: in vivo
Conditions: male, Sprague-Dawley, rat, in vivo, po, 0.72 g/kg, V z/F

{"columns": ["SMILES_STRUCTURE", "UNIT_STRING", "Vd/F"],
 "data": [
  ["O=C(O)c1cc(O)c(O)c(O)c1", "L", 8.93]
]}

====

Test: in vivo
Details: male, Sprague-Dawley, rat, plasma, po, 0.72 g/kg, AUC 0-t, plasma PK-marker, rats, intragastric PCE 0.72 g/kg + CIP […]

{"columns": ["MOLECULE", "AUC(0-t) (ng·h/mL)"],
 "data": [
  ["O=C(O)c1ccc(O)c(O)c1 [PCA, protocatechuic acid]", 6.37]
]}

====

Assay: clinical
Conditions: male, human, plasma, po, t 1/2, plasma PK-marker, human subjects, oral single dose of PCE (8 g) alone
REPORTED_PROPERTY: half-life

{"columns": ["COMPOUND", "REPORTED_PROPERTY", "READOUT_VALUE"],
 "data": [
  ["O=C(O)c1ccc(O)c(O)c1 [PCA, protocatechuic acid]", "half-life", "19.2 min"]
]}

====

Examples of compounds with documented k el follow.
Assay: clinical
Conditions: male, human, plasma, oral, k e, plasma PK-marker, human subjects, multiple doses of PCE (8 g, TID, seven days) + CIP 0.5 g
REPORTED_PROPERTY: k el (s⁻¹)

{"columns": ["COMPOUND", "READOUT_VALUE"],
 "data": [
  ["O=C(O)c1cc(O)c(O)c(O)c1 [GA, Gallic acid]", 0.000117],
  ["O=C(O)c1ccc(O)c(O)c1 [PCA, protocatechuic acid]", 0.000697]
]}

====

Assay: in vivo
Conditions: male, Sprague-Dawley, rat, plasma, po, 0.72 g/kg, AUC 0-t, plasma PK-marker, rats, intragastric PCE 0.72 g/kg alone

{"columns": ["MOLECULE", "UNIT_STRING", "AUC(0-t)"],
 "data": [
  ["O=C(O)c1ccc(O)c(O)c1 [PCA, protocatechuic acid]", "ng·h/mL", 6.72]
]}

====

Test: in vivo
Conditions: male, Sprague-Dawley, rat, plasma, po, 0.72 g/kg, C max, plasma PK-marker, rats, intragastric PCE 0.72 g/kg + CIP […]
REPORTED_PROPERTY: Cmax (ng/mL)

{"columns": ["SMILES_STRUCTURE", "REPORTED_PROPERTY", "READOUT_VALUE"],
 "data": [
  ["O=C(O)c1ccc(O)c(O)c1", "Cmax", 6.69]
]}

====

Assay: clinical
Settings: male, human, plasma, oral, C max, plasma PK-marker, human subjects, multiple doses of PCE (8 g, TID, seven days) + CIP 0.5 g

{"columns": ["SMILES_STRUCTURE", "Cmax"],
 "data": [
  ["O=C(O)c1ccc(O)c(O)c1", "5.88 ng/mL"]
]}

====

Experiment: in vivo
Conditions: male, Sprague-Dawley, rat, plasma, po, 0.72 g/kg, t max, median (range); plasma PK-marker, rats, intragastric PCE 0.72 g/kg + CIP […]

{"columns": ["SMILES_STRUCTURE", "Tmax"],
 "data": [
  ["O=C(O)c1ccc(O)c(O)c1", "30 min"]
]}

====

Biological target: hOAT1 (Homo sapiens, UniProt Q4U2R8)
Construct: host or cells: MDCK
Sequence (Q4U2R8 whole entry): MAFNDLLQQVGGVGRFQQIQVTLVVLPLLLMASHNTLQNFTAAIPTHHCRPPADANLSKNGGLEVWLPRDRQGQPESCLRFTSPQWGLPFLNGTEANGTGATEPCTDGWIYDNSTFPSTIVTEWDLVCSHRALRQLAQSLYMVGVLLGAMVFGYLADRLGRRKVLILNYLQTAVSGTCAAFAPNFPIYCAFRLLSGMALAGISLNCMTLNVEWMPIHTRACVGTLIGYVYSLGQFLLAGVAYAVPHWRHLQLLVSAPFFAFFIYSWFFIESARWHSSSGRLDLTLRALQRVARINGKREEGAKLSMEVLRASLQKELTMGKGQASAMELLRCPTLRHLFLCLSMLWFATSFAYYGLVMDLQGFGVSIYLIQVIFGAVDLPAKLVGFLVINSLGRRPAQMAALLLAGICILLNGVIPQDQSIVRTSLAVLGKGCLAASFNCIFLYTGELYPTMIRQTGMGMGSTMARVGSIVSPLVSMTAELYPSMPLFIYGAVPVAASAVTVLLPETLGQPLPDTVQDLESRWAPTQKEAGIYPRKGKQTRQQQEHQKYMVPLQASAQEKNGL
Assay: Inhibition of hOAT1-mediated uptake of 14C-PAH in hOAT1-MDCK cells
Assay type: cell-based
Settings: hOAT1-MDCK cells, 14C-PAH 5 µM

{"columns": ["SMILES_STRUCTURE", "UNIT_STRING", "IC50"],
 "data": [
  ["O=C(O)c1ccc(O)c(O)c1", "µM", 29.7]
]}

====

Assay: in vivo
Conditions: male, Sprague-Dawley, rat, plasma, po, 0.72 g/kg, V z/F, plasma PK-marker, rats, intragastric PCE 0.72 g/kg + CIP […]

{"columns": ["SMILES_STRUCTURE", "Vd/F [L]"],
 "data": [
  ["O=C(O)c1ccc(O)c(O)c1", 6.87]
]}

====

Experiment: clinical
Details: male, human, in vivo, po, AUC 0-t
REPORTED_PROPERTY: AUC(0-t) (ng·h/mL)

{"columns": ["SMILES_STRUCTURE", "UNIT_STRING", "READOUT_VALUE"],
 "data": [
  ["O=C(O)c1cc(O)c(O)c(O)c1", "ng·h/mL", 242]
]}

====

Experiment: clinical
Settings: male, human, plasma, oral, t 1/2, plasma PK-marker, human subjects, single dose of PCE (8 g) + CIP 0.5 g

{"columns": ["MOLECULE", "half-life (min)"],
 "data": [
  ["O=C(O)c1ccc(O)c(O)c1 [PCA, protocatechuic acid]", 25.2]
]}

====

Assay: clinical
Conditions: male, human, plasma, oral, AUC 0-t, plasma PK-marker, human subjects, single dose of PCE (8 g) + CIP 0.5 g

{"columns": ["COMPOUND", "AUC(0-t) [ng·h/mL]"],
 "data": [
  ["O=C(O)c1ccc(O)c(O)c1 [PCA, protocatechuic acid]", 3.68]
]}

====

Assay: clinical
Settings: male, human, plasma, po, k e, plasma PK-marker, human subjects, oral single dose of PCE (8 g) alone

{"columns": ["COMPOUND", "k el [s⁻¹]"],
 "data": [
  ["O=C(O)c1ccc(O)c(O)c1 [PCA, protocatechuic acid]", 0.000656],
  ["O=C(O)c1cc(O)c(O)c(O)c1 [GA, Gallic acid]", 0.000142]
]}

====

Assay: in vivo
Details: male, Sprague-Dawley, rat, plasma, po, 0.72 g/kg, k e, plasma PK-marker, rats, intragastric PCE 0.72 g/kg alone

{"columns": ["COMPOUND", "k el / s⁻¹"],
 "data": [
  ["O=C(O)c1cc(O)c(O)c(O)c1 [GA, Gallic acid]", "9.72e-05"],
  ["O=C(O)c1ccc(O)c(O)c1 [PCA, protocatechuic acid]", 0.000308]
]}

====

Assay: clinical
Details: male, human, in vivo, po

{"columns": ["SMILES_STRUCTURE", "Tmax"],
 "data": [
  ["O=C(O)c1cc(O)c(O)c(O)c1", "52.8 min"]
]}
